Quick list: inhibition at 1 µM per entry.
# measurement_target: PDK1 (Homo sapiens, UniProt O15530)
# assay_details: Thermo Fisher "PDK1 Direct" assay (peptide Ser/Thr 07, FRET readout)
# Assay type: biochemical
# conditions: 1 μM, replicate point 2; read-out: % Inhibition Point 2
Please give a number only; it is taken to be in %.

# annotated cases, reported inhibition at 1 µM shown
compound: NCCO[C@H]1[C@@H](OP(=O)(O)O)[C@H](OP(=O)(O)O)[C@@H](OP(=O)(O)O)[C@H](OP(=O)(O)O)[C@H]1OP(=O)(O)O
units_of_measure: %
inhibition at 1 µM: 11
//
compound: O=P(O)(O)O[C@H]1[C@H](OP(=O)(O)O)[C@@H](OP(=O)(O)O)[C@H](OP(=O)(O)O)[C@@H](OP(=O)(O)O)[C@H]1OP(=O)(O)O [IP6, inositol hexakisphosphate, reference compound]
units_of_measure: %
inhibition at 1 µM: 7
//
compound: O=C(O[C@H]1[C@@H](OP(=O)(O)O)[C@H](OP(=O)(O)O)[C@@H](OP(=O)(O)O)[C@H](OP(=O)(O)O)[C@H]1OP(=O)(O)O)c1ccccc1
units_of_measure: %
inhibition at 1 µM: 98
//
compound: CCCC(=O)O[C@H]1[C@@H](OP(=O)(O)O)[C@H](OP(=O)(O)O)[C@@H](OP(=O)(O)O)[C@H](OP(=O)(O)O)[C@H]1OP(=O)(O)O
units_of_measure: %
inhibition at 1 µM: 99

// next item, inhibition at 1 µM requested
Request: // fetch PDK1 (Homo sapiens, UniProt O15530) inhibition at 1 µM for O=P(O)(O)O[C@@H]1[C@@H](OP(=O)(O)O)[C@H](OP(=O)(O)O)[C@@H](O)[C@H](OP(=O)(O)O)[C@H]1OP(=O)(O)O [scyllo-IP5, reference compound]
Response: -10

====

# measurement_target: His-PDK1_1-556 and GST-PDK1_360-556 (Homo sapiens, UniProt O15530)
# Construct: made in house; host or cells: Sf9 insect cells (His-PDK1_1-556); HEK293 cells (GST-PDK1_360-556)
# Sequence (O15530 whole entry): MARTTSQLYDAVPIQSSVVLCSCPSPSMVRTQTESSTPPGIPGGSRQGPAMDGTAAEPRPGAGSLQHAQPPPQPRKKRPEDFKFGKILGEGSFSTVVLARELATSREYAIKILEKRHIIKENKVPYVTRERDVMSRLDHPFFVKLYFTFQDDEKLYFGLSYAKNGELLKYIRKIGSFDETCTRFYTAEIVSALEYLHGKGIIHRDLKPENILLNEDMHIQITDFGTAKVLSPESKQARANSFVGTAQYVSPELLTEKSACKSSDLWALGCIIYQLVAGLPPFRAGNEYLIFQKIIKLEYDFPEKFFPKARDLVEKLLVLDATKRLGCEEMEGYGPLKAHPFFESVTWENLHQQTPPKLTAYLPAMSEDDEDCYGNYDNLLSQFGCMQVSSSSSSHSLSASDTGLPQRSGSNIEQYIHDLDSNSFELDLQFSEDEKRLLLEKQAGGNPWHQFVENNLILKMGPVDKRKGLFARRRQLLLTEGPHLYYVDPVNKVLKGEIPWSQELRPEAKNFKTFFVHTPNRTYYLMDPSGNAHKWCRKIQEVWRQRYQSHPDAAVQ
# assay_details: AlphaScreen PDK1 dimerization assay His-PDK1_1-556 / GST-PDK1_360-556
# Assay type: binding
# conditions: Prestwick library screen hits; read-out: IC50, inhibition of PDK1 dimerization
value_type: IC50
Returns: string containing the number followed by the unit.

Request: What does the data say about its IC50? Entry: CCCCC(=O)N(Cc1ccc(-c2ccccc2-c2nnn[nH]2)cc1)[C@H](C(=O)O)C(C)C [valsartan, reference compound]
Response: 32 µM

====

# measurement_target: PDK1 (Homo sapiens, UniProt O15530)
# assay_details: Thermo Fisher "PDK1 Direct" assay (peptide Ser/Thr 07, FRET readout)
# Assay type: biochemical
# conditions: 1 μM, replicate point 1; read-out: % Inhibition Point 1
value_type: inhibition at 1 µM (%)
Please give a number only; it is taken to be in %.

# annotated cases, reported inhibition at 1 µM shown
compound: CCCCO[C@H]1[C@@H](OP(=O)(O)O)[C@H](OP(=O)(O)O)[C@@H](OP(=O)(O)O)[C@H](OP(=O)(O)O)[C@H]1OP(=O)(O)O [HYG14, 2-O-butyl-IP5]
inhibition at 1 µM [%]: 98
--
compound: NCCO[C@H]1[C@@H](OP(=O)(O)O)[C@H](OP(=O)(O)O)[C@@H](OP(=O)(O)O)[C@H](OP(=O)(O)O)[C@H]1OP(=O)(O)O [AMR1474, 2-O-(2-aminoethyl)-IP5]
inhibition at 1 µM [%]: 9

Request: What does the data say about its inhibition at 1 µM? Entry: O=P(O)(O)O[C@@H]1[C@@H](OP(=O)(O)O)[C@H](OP(=O)(O)O)[C@@H](O)[C@H](OP(=O)(O)O)[C@H]1OP(=O)(O)O [scyllo-IP5, reference compound]
Response: -8

====

Quick list: IC50 per entry.
# measurement_target: PDK1 (Homo sapiens)
# assay_details: Thermo Fisher "PDK1 Direct" assay (peptide Ser/Thr 07, FRET readout)
# Type: biochemical
# conditions: 10-point titration
Please give a number only; it is taken to be in nM.

# annotated cases, reported IC50 shown
mol: CCCC(=O)O[C@H]1[C@@H](OP(=O)(O)O)[C@H](OP(=O)(O)O)[C@@H](OP(=O)(O)O)[C@H](OP(=O)(O)O)[C@H]1OP(=O)(O)O
IC50 (nM): 29

mol: CC(=O)O[C@H]1[C@@H](OP(=O)(O)O)[C@H](OP(=O)(O)O)[C@@H](OP(=O)(O)O)[C@H](OP(=O)(O)O)[C@H]1OP(=O)(O)O
IC50 (nM): 449

// next item, IC50 requested
Request: What does the data say about its IC50? Entry: "CCCCO[C@H]1[C@@H](OP(=O)(O)O)[C@H](OP(=O)(O)O)[C@@H](OP(=O)(O)O)[C@H](OP(=O)(O)O)[C@H]1OP(=O)(O)O"
Response: 16.2

====

# measurement_target: PDK1 (Homo sapiens, UniProt O15530)
# assay_details: Thermo Fisher "PDK1 Direct" assay (peptide Ser/Thr 07, FRET readout)
# Assay type: biochemical
# conditions: 10-point titration
value_type: IC50 (nM)
Please give a number only; it is taken to be in nM.

Request: What does the data say about its IC50? Entry: O=P(O)(O)O[C@@H]1[C@@H](OP(=O)(O)O)[C@H](OP(=O)(O)O)[C@H](O)[C@H](OP(=O)(O)O)[C@H]1OP(=O)(O)O [IP5, inositol-1,3,4,5,6-pentaphosphate, reference compound]
Response: 577

Request: What does the data say about its IC50? Entry: "O=C(O[C@H]1[C@@H](OP(=O)(O)O)[C@H](OP(=O)(O)O)[C@@H](OP(=O)(O)O)[C@H](OP(=O)(O)O)[C@H]1OP(=O)(O)O)c1ccccc1"
Response: 24.5

====

# measurement_target: UniProtKB O15530
# assay_details: Thermo Fisher "PDK1 Direct" assay (peptide Ser/Thr 07, FRET readout)
# Type: biochemical
# conditions: 1 μM, replicate point 2; read-out: % Inhibition Point 2
value_type: inhibition at 1 µM (%)
Please give a number only; it is taken to be in %.

# annotated cases, reported inhibition at 1 µM shown
compound: CCCCO[C@H]1[C@@H](OP(=O)(O)O)[C@H](OP(=O)(O)O)[C@@H](OP(=O)(O)O)[C@H](OP(=O)(O)O)[C@H]1OP(=O)(O)O [HYG14, 2-O-butyl-IP5]
units_of_measure: %
measured_value: 101
//
compound: O=P(O)(O)O[C@@H]1[C@@H](OP(=O)(O)O)[C@H](OP(=O)(O)O)[C@H](O)[C@H](OP(=O)(O)O)[C@H]1OP(=O)(O)O [IP5, inositol-1,3,4,5,6-pentaphosphate, reference compound]
units_of_measure: %
measured_value: 69

// next item, inhibition at 1 µM requested
Request: What does the data say about its inhibition at 1 µM? Entry: CC(=O)O[C@H]1[C@@H](OP(=O)(O)O)[C@H](OP(=O)(O)O)[C@@H](OP(=O)(O)O)[C@H](OP(=O)(O)O)[C@H]1OP(=O)(O)O [HYG6, 2-O-acetyl-IP5]
Response: 64

====

# measurement_target: PDK1 (Homo sapiens)
# assay_details: Thermo Fisher "PDK1 Direct" assay (peptide Ser/Thr 07, FRET readout)
# Assay type: biochemical
# conditions: 1 μM, single point, N=2; read-out: Inhibition at 1 μM (%)
Quick list: inhibition at 1 µM per entry.
Please give a number only; it is taken to be in %.

# annotated cases, reported inhibition at 1 µM shown
compound: O=P(O)(O)O[C@@H]1[C@@H](OP(=O)(O)O)[C@H](OP(=O)(O)O)[C@H](O)[C@H](OP(=O)(O)O)[C@H]1OP(=O)(O)O [IP5, inositol-1,3,4,5,6-pentaphosphate, reference compound]
inhibition at 1 µM (%): 66
--
compound: O=C(O[C@H]1[C@@H](OP(=O)(O)O)[C@H](OP(=O)(O)O)[C@@H](OP(=O)(O)O)[C@H](OP(=O)(O)O)[C@H]1OP(=O)(O)O)c1ccccc1
inhibition at 1 µM (%): 98

// next item, inhibition at 1 µM requested
Request: // fetch PDK1 (Homo sapiens) inhibition at 1 µM for "CC(=O)O[C@H]1[C@@H](OP(=O)(O)O)[C@H](OP(=O)(O)O)[C@@H](OP(=O)(O)O)[C@H](OP(=O)(O)O)[C@H]1OP(=O)(O)O"
Response: 59

====

# measurement_target: His-PDK1_1-556 and GST-PDK1_360-556 (Homo sapiens, UniProt O15530)
# Construct: made in house; host or cells: Sf9 insect cells (His-PDK1_1-556); HEK293 cells (GST-PDK1_360-556)
# assay_details: AlphaScreen PDK1 dimerization assay His-PDK1_1-556 / GST-PDK1_360-556
# Type: binding
# conditions: with PIFtide; read-out: IC50 (nM), displacement of His-PDK1_1-556 interaction with GST-PDK1_360-556 with PIFtide
Cut-off 30 nM on IC50: below means y, at or above means n.

Sample answers from the record:
molecule: O=P(O)(O)O[C@@H]1[C@@H](OP(=O)(O)O)[C@H](OP(=O)(O)O)[C@H](O)[C@H](OP(=O)(O)O)[C@H]1OP(=O)(O)O [IP5, inositol-1,3,4,5,6-pentaphosphate, reference compound]
label: n
--
molecule: NCCO[C@H]1[C@@H](OP(=O)(O)O)[C@H](OP(=O)(O)O)[C@@H](OP(=O)(O)O)[C@H](OP(=O)(O)O)[C@H]1OP(=O)(O)O [AMR1474, 2-O-(2-aminoethyl)-IP5]
label: n
--
molecule: CC(=O)O[C@H]1[C@@H](OP(=O)(O)O)[C@H](OP(=O)(O)O)[C@@H](OP(=O)(O)O)[C@H](OP(=O)(O)O)[C@H]1OP(=O)(O)O [HYG6, 2-O-acetyl-IP5]
label: y
--
molecule: O=C(O[C@H]1[C@@H](OP(=O)(O)O)[C@H](OP(=O)(O)O)[C@@H](OP(=O)(O)O)[C@H](OP(=O)(O)O)[C@H]1OP(=O)(O)O)c1ccccc1 [HYG8, 2-O-benzoyl-IP5]
label: y
--
molecule: CCCC(=O)O[C@H]1[C@@H](OP(=O)(O)O)[C@H](OP(=O)(O)O)[C@@H](OP(=O)(O)O)[C@H](OP(=O)(O)O)[C@H]1OP(=O)(O)O [HYG7, 2-O-butyryl-IP5]
label: y

Field: next molecule
Request: For this molecule, is IC50 lower than 30 nM? O=P(O)(O)O[C@@H]1[C@@H](OP(=O)(O)O)[C@H](OP(=O)(O)O)[C@@H](O)[C@H](OP(=O)(O)O)[C@H]1OP(=O)(O)O [scyllo-IP5, reference compound]
Response: n

Cited source: paper PMC7614687
